This collection of values is drawn from ChEMBL document CHEMBL1201862.

# System: SF-295
# assayText: NCI tumour cell line growth inhibition, 48 h
Active and inactive are the calls of the source. Cut-off read from the data, not from the text of the source: active = GI50 up to about 1.1 µM and inactive = higher.

- compound: "SCCCSCCSCCCSCCS"
  GI50: "> 100 µM (inactive)"
- compound: "CC(=O)O[C@]12CCCC1C1(O)C(O)CCCC12 (some centres undefined)"
  GI50: "> 100 µM (inactive)"
- compound: "N#Cc1sc2c(c1OC(=O)c1ccco1)c(=O)n(-c1ccccc1)c(=S)n2-c1ccccc1"
  GI50: "26.7 µM (inactive)"
- compound: "N#CCc1nc2cc(C(F)(F)F)ccc2s1"
  GI50: "49.4 µM (inactive)"
- compound: "CCCCCCCCCCCCCCC(C)CCC(=O)O (centres undefined)"
  GI50: "> 100 µM (inactive)"
- compound: "COc1ccc(C2S/C(=C\\c3cccc(OC)c3)C(=O)N2NC(=O)Cc2ccccc2)cc1 (centres undefined)"
  GI50: "> 100 µM (inactive)"
- compound: "CCNc1nc2c(ncn2C2CC(O)C(COP(=O)(O)O)O2)c(=O)[nH]1 (centres undefined)"
  GI50: "> 100 µM (inactive)"
- compound: "COc1cc(NS(C)(=O)=O)ccc1NCc1c[nH]c2ccc3ncccc3c12"
  GI50: "18.5 µM (inactive)"
- compound: "O=C1/C(=C/c2ccccc2)CCCc2ccccc21"
  GI50: "19 µM (inactive)"
- compound: "CC1(C)CC2(S(=O)(=O)c3ccccc3)ON1CC2S(=O)(=O)c1ccccc1 (centres undefined)"
  GI50: "> 100 µM (inactive)"
- compound: "COc1cc(O)ccc1C(=S)SC"
  GI50: "60.3 µM (inactive)"
- compound: "CN1C(=O)C23CCCC2CC1(c1ccccc1)S3 (centres undefined)"
  GI50: "> 100 µM (inactive)"
- compound: "O=S(=O)(O)c1ccc(/N=N/c2ccc(/N=N/c3c(O)ccc4ccccc34)c(S(=O)(=O)O)c2)cc1"
  GI50: "> 100 µM (inactive)"
- compound: "Cc1ccc2c(n1)C(=O)c1ccccc1C2=O"
  GI50: "25.8 µM (inactive)"
- compound: "N#Cc1nc(COCc2ccccc2)oc1N"
  GI50: "> 100 µM (inactive)"
- compound: "Cc1cn2c(=O)c3ncn(C4OC(CO)C(O)C4O)c3n(C)c2n1 (centres undefined)"
  GI50: "> 100 µM (inactive)"
- compound: "NC(=O)C12CCC1C1CCCCC12N1CCOCC1 (centres undefined)"
  GI50: "> 100 µM (inactive)"
- compound: "CC1OC(c2ccc3c(OCc4ccccc4)cccc3c2O)CC(OCc2ccccc2)[C@H]1OCc1ccccc1 (some centres undefined)"
  GI50: "> 10 µM (inactive)"
- compound: "O=C(O)CN1CCCC(Cc2c[nH]c3ccccc23)C1 (centres undefined)"
  GI50: "> 100 µM (inactive)"
- compound: "O=C(O)c1ccc(C2C3C=CC(C3)C2[N+](=O)[O-])cc1 (centres undefined)"
  GI50: "> 100 µM (inactive)"
- compound: "CCN1CCc2sc3nc(S)n(C)c(=O)c3c2C1"
  GI50: "> 100 µM (inactive)"
- compound: "CC1=Nc2ccccc2NC(c2ccoc2)C1 (centres undefined)"
  GI50: "> 100 µM (inactive)"
- compound: "CCN(CC)CCNc1ccc2ncn3c4ccc(O)cc4c(=O)c1c23"
  GI50: "0.216 µM (active)"
- compound: "O=C1c2c(O)cccc2C(C(=O)CCCCCC(=O)C2c3cccc(O)c3C(=O)c3c(O)cccc32)c2cccc(O)c21"
  GI50: "1.14 µM (inactive)"

---

# System: HOP-18
# assayText: NCI tumour cell line growth inhibition, 48 h
Activity calls are given as the source filed them. Cut-off read from the data, not from the text of the source: active = GI50 up to about 1.1 µM and inactive = higher.
valueType: GI50

- molecule: "COc1ccc(OC)c2c1C(=O)C(Cl)=C(Cl)C2=O"
  valueType: "GI50"
  testValue: "3.54 µM (inactive)"
- molecule: "O=C(/C=C/c1ccc(Cl)c(Cl)c1)C1CCC(Cl)CC1 (stereo unspecified)"
  valueType: "GI50"
  testValue: "27.5 µM (inactive)"
- molecule: "CC(C)(C)/N=C\\N1CCC(C(c2ccccc2)c2ccccc2)CC1"
  valueType: "GI50"
  testValue: "53.2 µM (inactive)"
- molecule: "CC1c2[nH]c3ccccc3c2CCN1O (stereo unspecified)"
  valueType: "GI50"
  testValue: "> 100 µM (inactive)"
- molecule: "Cc1cn2c(=O)c3ncn(C4OC(CO)C(O)C4O)c3n(C)c2n1 (stereo unspecified)"
  valueType: "GI50"
  testValue: "> 100 µM (inactive)"
- molecule: "CC1=Nc2ccccc2NC(c2ccoc2)C1 (stereo unspecified)"
  valueType: "GI50"
  testValue: "> 100 µM (inactive)"
- molecule: "CN(C)c1ccc(/C=C2\\CCc3ccccc3C2=O)cc1Br"
  valueType: "GI50"
  testValue: "> 100 µM (inactive)"
- molecule: "O=C(O)CN(c1ccccc1)S(=O)(=O)c1cccc([N+](=O)[O-])c1"
  valueType: "GI50"
  testValue: "> 100 µM (inactive)"
- molecule: "O=C1c2c(O)cccc2C(C(=O)CCCCCC(=O)C2c3cccc(O)c3C(=O)c3c(O)cccc32)c2cccc(O)c21"
  valueType: "GI50"
  testValue: "1.16 µM (inactive)"
- molecule: "CCOc1ccc(/N=C\\c2ccc3cc(C)ccc3n2)cc1"
  valueType: "GI50"
  testValue: "> 100 µM (inactive)"
- molecule: "O=C(c1ccccc1)N1CCN2CCN=C(c3ccccc3)C21c1ccccc1 (stereo unspecified)"
  valueType: "GI50"
  testValue: "> 100 µM (inactive)"

---

# System: LOX IMVI
# assayText: NCI tumour cell line growth inhibition, 48 h
Calls of active or inactive are those of the source. Rule as the data show it: active = GI50 up to about 1.1 µM and inactive = higher.
Entries and their GI50
valueType: GI50

- compound: "COc1ccc2nc3ccc(OC)cc3c(SCC3CO3)c2c1 (centres undefined)"
  testValue: "15.4 µM (inactive)"
- compound: "COc1ccc2nc3cc(Cl)ccc3c(NCCCN(CCCl)CCCl)c2c1"
  testValue: "0.0126 µM (active)"
- compound: "CCOC(=O)C1C(C(C)C)C2(C#N)C(=N)OC1(C)C2(C#N)C#N (centres undefined)"
  testValue: "43.3 µM (inactive)"
- compound: "CC(=O)OC[C@@H](OC(C)=O)[C@@H](OC(C)=O)[C@H]1OC[C@@H]2C[C@H]([C@H]1OC(C)=O)N(Cc1ccccc1)O2"
  testValue: "> 100 µM (inactive)"
- compound: "O=C(CCN1CCCCC1)N1CCc2c([nH]c3ccccc23)C1c1cccnc1 (centres undefined)"
  testValue: "40.6 µM (inactive)"
- compound: "CCCCCCCCOCC(COC(=O)CCCCCCC)OC(=O)CCCCCCC (centres undefined)"
  testValue: "> 100 µM (inactive)"
- compound: "CC1=C(C(=O)N[C@@H](CC(C)C)C(=O)O)N2C(=O)[C@@H](NC(=O)C(N)c3ccccc3)[C@H]2SC1 (some centres undefined)"
  testValue: "> 100 µM (inactive)"
- compound: "COc1cc(NS(C)(=O)=O)ccc1NCc1c[nH]c2ccc3ncccc3c12"
  testValue: "25.2 µM (inactive)"
- compound: "O=[N+]([O-])c1ccc(Sc2c3ccccc3nc3ccccc23)cc1"
  testValue: "> 100 µM (inactive)"

---

# Tested on: SNB-75
# assayText: NCI tumour cell line growth inhibition, 48 h
Active and inactive are the calls of the source. Rule as the data show it: active = GI50 up to about 1.1 µM and inactive = higher.
Entries and their GI50
valueType: GI50

- molecule: "COc1cccc(C(=O)Oc2ccc(OS(=O)(=O)c3ccc(C)cc3)cc2)c1C#N"
  testValue: "> 100 µM (inactive)"
- molecule: "Cc1c2c(c(C)n1-c1ccccc1)C(=O)N(CCCCN1CCN(c3ccccc3)CC1)C2=O"
  testValue: "6.89 µM (inactive)"
- molecule: "CCN(CC)CCNc1ccc2ncn3c4ccc(O)cc4c(=O)c1c23"
  testValue: "0.652 µM (active)"
- molecule: "O=C1/C(=C/c2ccc(Cl)cc2)CNC/C1=C\\c1ccc(Cl)cc1"
  testValue: "4.36 µM (inactive)"
- molecule: "COc1cc(O)ccc1C(=S)SC"
  testValue: "> 100 µM (inactive)"
- molecule: "O/N=C1/C(=C/c2ccc3c(c2)OCO3)CCCC1C(NO)c1ccc2c(c1)OCO2 (stereo not given)"
  testValue: "27.2 µM (inactive)"
- molecule: "CCCCCCCCCCCCCCC(C)CCC(=O)O (stereo not given)"
  testValue: "> 100 µM (inactive)"
- molecule: "CCCCN1C(=O)CC2[C@@H]3CCc4cc(OC)ccc4C3CC[C@]2(C)C1=O (stereo not given in full)"
  testValue: "3.1 µM (inactive)"
- molecule: "O=Cc1ccccc1COC(=O)c1cc(C(=O)OCc2ccccc2C=O)c(C(=O)OCc2ccccc2C=O)cc1C(=O)OCc1ccccc1C=O"
  testValue: "21.5 µM (inactive)"
- molecule: "Nc1ccccc1C(=O)CC1OC(=O)c2ccccc21 (stereo not given)"
  testValue: "23 µM (inactive)"
